tested on: Gram negative bacteria, Gram positive bacteria and pathogenic yeasts; assay: MIC agar dilution, summary statements over the micro-organisms tested (Tables I, IX); format: cell-based; conditions: read-out: MIC
Overview of recorded MIC for various compounds

>  <compound>
CCCCCCCCCCCCOCCOCCOCCOCCO [L4, Tetraethylene Glycol Monododecyl Ether]

>  <measurement target>
Gram negative bacteria, Gram positive bacteria and pathogenic yeasts

>  <MIC>
~110 µM

$$$$
>  <compound>
CCCCCCCCCCCCOCCOCCOCCO [L3, Triethylene Glycol Monododecyl Ether]

>  <measurement target>
Gram negative bacteria, Gram positive bacteria and pathogenic yeasts

>  <MIC>
~110 µM

$$$$
>  <compound>
CCCCCCCCCCCCOCCOCCOCCOCCOCCO [L5, Pentaethylene Glycol Monododecyl Ether]

>  <measurement target>
Gram negative bacteria, Gram positive bacteria and pathogenic yeasts

>  <MIC>
~110 µM

$$$$
>  <compound>
CCCCCCCCCCCCOCCOCCOCCOCCOCCOCCO [L6, Hexaethylene Glycol Monododecyl Ether]

>  <measurement target>
Gram negative bacteria, Gram positive bacteria and pathogenic yeasts

>  <MIC>
~110 µM

$$$$
>  <compound>
CCCCCCCCCCCCOCCO [L1, Ethylene Glycol Monododecyl Ether]

>  <measurement target>
Gram negative bacteria, Gram positive bacteria and pathogenic yeasts

>  <MIC>
≤ 440 µM

$$$$

###

system: Staphylococcus epidermidis; test: MIC agar dilution, micro-organism 14 (11047); assay type: cell-based; details: Staphylococcus epidermidis 11047; 48 hrs; read-out: MIC

>  <molecule>
CCCCCCCCCCCCCCOCCOCCOCCOCCO

>  <measurement target>
Staphylococcus epidermidis

>  <value modifier>
=

>  <MIC / µM>
110

$$$$
>  <molecule>
CCCCCCCCCCOCCO [D1, Ethylene Glycol Monodecyl Ether, reference compound]

>  <measurement target>
Staphylococcus epidermidis

>  <value modifier>
>

>  <MIC / µM>
880

$$$$
>  <molecule>
CCCCCCCCCCCCOCCOCCOCCOCCOCCOCCOCCO

>  <measurement target>
Staphylococcus epidermidis

>  <value modifier>
=

>  <MIC / µM>
110

$$$$
>  <molecule>
CCCCCCCCCCCCCCCCO [C0, 1-Hexadecanol, reference compound]

>  <measurement target>
Staphylococcus epidermidis

>  <value modifier>
>

>  <MIC / µM>
880

$$$$
>  <molecule>
CCCCCCCCCCCCO [L0, 1-Dodecanol, reference compound]

>  <measurement target>
Staphylococcus epidermidis

>  <value modifier>
>

>  <MIC / µM>
880

$$$$
>  <molecule>
CCCCCCCCCCCCOCCOCCOCCOCCOCCOCCO

>  <measurement target>
Staphylococcus epidermidis

>  <value modifier>
=

>  <MIC / µM>
110

$$$$
>  <molecule>
CCCCCCCCCCCCOCCO

>  <measurement target>
Staphylococcus epidermidis

>  <value modifier>
=

>  <MIC / µM>
220

$$$$
>  <molecule>
CCCCCCCCCCCCOCCOCCOCCOCCOCCO

>  <measurement target>
Staphylococcus epidermidis

>  <value modifier>
=

>  <MIC / µM>
110

$$$$
>  <molecule>
CCCCCCCCCCCCCCO [M0, 1-Tetradecanol, reference compound]

>  <measurement target>
Staphylococcus epidermidis

>  <value modifier>
=

>  <MIC / µM>
220

$$$$
>  <molecule>
CCCCCCCCCCCCOCC(C)O (racemic)

>  <measurement target>
Staphylococcus epidermidis

>  <value modifier>
>

>  <MIC / µM>
880

$$$$
>  <molecule>
CCCCCCCCCCCCOCCOCCOCCO

>  <measurement target>
Staphylococcus epidermidis

>  <value modifier>
≤

>  <MIC / µM>
50

$$$$
>  <molecule>
CCCCCCCCCCCCCCOCCOCCOCCOCCOCCOCCOCCOCCO

>  <measurement target>
Staphylococcus epidermidis

>  <value modifier>
=

>  <MIC / µM>
220

$$$$
>  <molecule>
CCCCCCCCCCCCCCCCCCO [S0, 1-Octadecanol, reference compound]

>  <measurement target>
Staphylococcus epidermidis

>  <value modifier>
>

>  <MIC / µM>
880

$$$$
>  <molecule>
CCCCCCCCCCCCOCCOCCOCCOCCOCCOCCOCCOCCO

>  <measurement target>
Staphylococcus epidermidis

>  <value modifier>
=

>  <MIC / µM>
110

$$$$
>  <molecule>
CCCCCCCCCCCCOCCOCCO

>  <measurement target>
Staphylococcus epidermidis

>  <value modifier>
=

>  <MIC / µM>
110

$$$$
>  <molecule>
OCCOCCOCCCCCCCCCCCCOCCOCCO

>  <measurement target>
Staphylococcus epidermidis

>  <value modifier>
>

>  <MIC / µM>
880

$$$$
>  <molecule>
OCCCCCCCCCCCCO [D, 1,12-dodecanediol, reference compound]

>  <measurement target>
Staphylococcus epidermidis

>  <value modifier>
>

>  <MIC / µM>
880

$$$$
>  <molecule>
CCCCCCCCCCO [D0, 1-Decanol, reference compound]

>  <measurement target>
Staphylococcus epidermidis

>  <value modifier>
>

>  <MIC / µM>
880

$$$$
>  <molecule>
CCCCCCCCCCCCOCCOCCOCCOCCO

>  <measurement target>
Staphylococcus epidermidis

>  <value modifier>
=

>  <MIC / µM>
110

$$$$

###

tested on: Staphylococcus aureus; experiment: MIC agar dilution, micro-organism 13 (6571); format: cell-based; conditions: Staphylococcus aureus, 48 h, Staphylococcus aureus 6571; 48 hrs; read-out: MIC

>  <compound>
CCCCCCCCCCCCCCOCCOCCOCCOCCOCCOCCOCCOCCO

>  <measurement target>
Staphylococcus aureus

>  <value modifier>
=

>  <MIC, µM>
110

$$$$
>  <compound>
CCCCCCCCCCCCCCCCO [C0, 1-Hexadecanol, reference compound]

>  <measurement target>
Staphylococcus aureus

>  <value modifier>
>

>  <MIC, µM>
880

$$$$
>  <compound>
CCCCCCCCCCCCOCCOCCOCCOCCOCCOCCOCCOCCO

>  <measurement target>
Staphylococcus aureus

>  <value modifier>
=

>  <MIC, µM>
110

$$$$
>  <compound>
CCCCCCCCCCCCOCCO

>  <measurement target>
Staphylococcus aureus

>  <value modifier>
=

>  <MIC, µM>
220

$$$$
>  <compound>
OCCOCCOCCCCCCCCCCCCOCCOCCO

>  <measurement target>
Staphylococcus aureus

>  <value modifier>
>

>  <MIC, µM>
880

$$$$
>  <compound>
CCCCCCCCCCCCOCCOCCOCCOCCOCCO

>  <measurement target>
Staphylococcus aureus

>  <value modifier>
=

>  <MIC, µM>
110

$$$$
>  <compound>
CCCCCCCCCCCCOCCOCCOCCO

>  <measurement target>
Staphylococcus aureus

>  <value modifier>
≤

>  <MIC, µM>
50

$$$$
>  <compound>
CCCCCCCCCCCCOCCOCCOCCOCCOCCOCCO

>  <measurement target>
Staphylococcus aureus

>  <value modifier>
=

>  <MIC, µM>
110

$$$$
>  <compound>
CCCCCCCCCCCCOCC(C)O (racemic)

>  <measurement target>
Staphylococcus aureus

>  <value modifier>
>

>  <MIC, µM>
880

$$$$
>  <compound>
CCCCCCCCCCCCCCCCCCO [S0, 1-Octadecanol, reference compound]

>  <measurement target>
Staphylococcus aureus

>  <value modifier>
>

>  <MIC, µM>
880

$$$$
>  <compound>
OCCCCCCCCCCCCO [D, 1,12-dodecanediol, reference compound]

>  <measurement target>
Staphylococcus aureus

>  <value modifier>
>

>  <MIC, µM>
880

$$$$
>  <compound>
CCCCCCCCCCOCCO [D1, Ethylene Glycol Monodecyl Ether, reference compound]

>  <measurement target>
Staphylococcus aureus

>  <value modifier>
>

>  <MIC, µM>
880

$$$$
>  <compound>
CCCCCCCCCCCCO [L0, 1-Dodecanol, reference compound]

>  <measurement target>
Staphylococcus aureus

>  <value modifier>
≥

>  <MIC, µM>
880

$$$$
>  <compound>
CCCCCCCCCCCCOCCOCCOCCOCCO

>  <measurement target>
Staphylococcus aureus

>  <value modifier>
=

>  <MIC, µM>
110

$$$$
>  <compound>
CCCCCCCCCCO [D0, 1-Decanol, reference compound]

>  <measurement target>
Staphylococcus aureus

>  <value modifier>
>

>  <MIC, µM>
880

$$$$
>  <compound>
CCCCCCCCCCCCCCOCCOCCOCCOCCO

>  <measurement target>
Staphylococcus aureus

>  <value modifier>
=

>  <MIC, µM>
55

$$$$
>  <compound>
CCCCCCCCCCCCOCCOCCO

>  <measurement target>
Staphylococcus aureus

>  <value modifier>
=

>  <MIC, µM>
110

$$$$
>  <compound>
CCCCCCCCCCCCCCO [M0, 1-Tetradecanol, reference compound]

>  <measurement target>
Staphylococcus aureus

>  <value modifier>
=

>  <MIC, µM>
440

$$$$

###

tested on: MRSA NCTC 11939; assay: Synergy testing: disc susceptibility, zone of inhibition on agar containing Laureth derivative; type: cell-based, Staphylococcus aureus; details: antibiotic disc in the presence of L7 [C12E7] 0.0275 mmol/L

>  <smiles input>
CN(C)[C@@H]1C(O)=C(C(N)=O)C(=O)[C@@]2(O)C(O)=C3C(=O)c4c(O)cccc4[C@@](C)(O)[C@H]3C[C@@H]12

>  <measurement target>
MRSA NCTC 11939

>  <Zone of Inhibition, mm>
36

$$$$
>  <smiles input>
COc1c(N2C[C@@H]3CCCN[C@@H]3C2)c(F)cc2c(=O)c(C(=O)O)cn(C3CC3)c12

>  <measurement target>
MRSA NCTC 11939

>  <Zone of Inhibition, mm>
18

$$$$
>  <smiles input>
CCC[C@@H]1C[C@@H](C(=O)N[C@@H]([C@H]2O[C@H](SC)[C@H](O)[C@@H](O)[C@H]2O)[C@H](C)Cl)N(C)C1

>  <measurement target>
MRSA NCTC 11939

>  <Zone of Inhibition, mm>
34

$$$$
>  <smiles input>
CC[C@H]1OC(=O)[C@H](C)[C@@H](O[C@H]2C[C@@](C)(OC)[C@@H](O)[C@H](C)O2)[C@H](C)[C@@H](O[C@@H]2O[C@H](C)C[C@H](N(C)C)[C@H]2O)[C@](C)(O)C[C@@H](C)C(=O)[C@H](C)[C@@H](O)[C@]1(C)O

>  <measurement target>
MRSA NCTC 11939

>  <Zone of Inhibition, mm>
7

$$$$
>  <smiles input>
C/C(=C\C(=O)OCCCCCCCCC(=O)O)C[C@@H]1OC[C@H](C[C@@H]2O[C@H]2[C@@H](C)[C@H](C)O)[C@@H](O)[C@H]1O

>  <measurement target>
MRSA NCTC 11939

>  <Zone of Inhibition, mm>
34

$$$$
